Assay target: endogenous kinases and other proteins enriched by Kinobeads from mixed cancer cell lysates (Homo sapiens)
Construct: endogenous in cells
Sequence (Q13043 1-487): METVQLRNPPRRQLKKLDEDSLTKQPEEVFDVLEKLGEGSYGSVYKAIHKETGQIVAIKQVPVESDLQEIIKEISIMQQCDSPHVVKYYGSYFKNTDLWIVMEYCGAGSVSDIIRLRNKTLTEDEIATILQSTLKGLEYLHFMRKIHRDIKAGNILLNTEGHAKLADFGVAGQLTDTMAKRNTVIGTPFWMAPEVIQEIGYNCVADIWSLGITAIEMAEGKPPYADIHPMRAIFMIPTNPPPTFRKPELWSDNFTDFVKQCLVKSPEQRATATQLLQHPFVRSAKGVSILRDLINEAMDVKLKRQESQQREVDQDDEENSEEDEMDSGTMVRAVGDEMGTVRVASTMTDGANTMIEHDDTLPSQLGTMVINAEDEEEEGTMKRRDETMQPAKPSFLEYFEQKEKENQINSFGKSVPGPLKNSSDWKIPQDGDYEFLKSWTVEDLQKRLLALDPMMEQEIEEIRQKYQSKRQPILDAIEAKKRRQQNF
Assay info: Kinobeads pulldown, full dose-response (eight doses)
Experimental conditions: target STK4; read-out: apparent Kd
Measured metric: Kd (nM)

* Cn1cc(-c2nc(N[C@@H]3CCCC[C@@H]3N)c(F)c3c2C(=O)NC3)cn1 | 567

====

Below: a set of entries, each annotated with reported CATDS.
Assay target: EPHA4 (Homo sapiens)
Construct: endogenous in cells
Assay info: Kinobeads competition binding: EPHA4
Experimental conditions: target EPHA4
Measured metric: CATDS

• N#CC1(c2ccc(NC(=O)c3cccnc3NCc3ccncc3)cc2)CCCC1 [Apatinib] = 0
• CN(C)C/C=C/C(=O)Nc1cc2c(Nc3ccc(F)c(Cl)c3)ncnc2cc1O[C@H]1CCOC1 [Afatinib] = 0
• Nc1ncnc2[nH]c(-c3ccccc3)nc12 [AH5015_KCGS] = 0
• CCc1cc2c(cc1N1CCC(N3CCOCC3)CC1)C(C)(C)c1[nH]c3cc(C#N)ccc3c1C2=O [Alectinib] = 0
• CCN1CCN(Cc2ccc(Nc3ncc(F)c(-c4cc(F)c5nc(C)n(C(C)C)c5c4)n3)nc2)CC1 [Abemaciclib] = 0

====

Assay target: endogenous kinases and other proteins enriched by Kinobeads from mixed cancer cell lysates (Homo sapiens)
Construct: endogenous in cells
Assay info: Kinobeads pulldown, full dose-response (eight doses)
Experimental conditions: target EPHA7; read-out: apparent Kd
Measured metric: Kd (nM)

• Cn1cc(-c2nc(N[C@@H]3CCCC[C@@H]3N)c(F)c3c2C(=O)NC3)cn1 [TAK659] = 617

====

Assay target: NQO1 (Homo sapiens)
Construct: endogenous in cells
Assay info: Kinobeads competition binding: NQO1
Experimental conditions: target NQO1
Measured metric: CATDS

* CCc1cc2c(cc1N1CCC(N3CCOCC3)CC1)C(C)(C)c1[nH]c3cc(C#N)ccc3c1C2=O | 0
* Nc1ncnc2[nH]c(-c3ccccc3)nc12 | 0
* CCN1CCN(Cc2ccc(Nc3ncc(F)c(-c4cc(F)c5nc(C)n(C(C)C)c5c4)n3)nc2)CC1 | 0
* N#CC1(c2ccc(NC(=O)c3cccnc3NCc3ccncc3)cc2)CCCC1 | 0
* CN(C)C/C=C/C(=O)Nc1cc2c(Nc3ccc(F)c(Cl)c3)ncnc2cc1O[C@H]1CCOC1 | 0

====

Assay target: endogenous kinases and other proteins enriched by Kinobeads from mixed cancer cell lysates (Homo sapiens)
Construct: endogenous in cells
Assay info: Kinobeads pulldown, full dose-response (eight doses);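 further: competition with Kinobeads ε after inhibitor preincubation in lysate (5 mg/ml protein) for 45 min at 4 °C, DMSO control, doses 0.3–1,000 nM, label-free LC–MS/MS quantification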
Experimental conditions: target SIK2
Measured metric: EC50

• Cn1cc(-c2nc(N[C@@H]3CCCC[C@@H]3N)c(F)c3c2C(=O)NC3)cn1 = 260 nM

====

Assay target: AAK1 (Homo sapiens, UniProt Q2M2I8)
Construct: to maximize the representation of endogenous proteins; endogenous in cells
Assay info: Kinobeads two-dose competition binding: AAK1;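 further: kinobeads competition pulldown from cell lysate, compound preincubated 45 min at 4 °C, bead-bound protein measured by label-free mass spectrometry against DMSO vehicle control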
Experimental conditions: sheet CATDS matrix 2; Gene Name AAK1
Parameter CATDS: see the listing below.
Measured metric: CATDS

• Nc1nc(-c2ccc3c(N)n[nH]c3c2)cc(N2CCCCC2)n1 [GSK2228768A] = 0.1964
• COc1cc2ncnc(Nc3ccc(F)c(Cl)c3)c2cc1O[C@H]1CC[C@H](N)CC1 [BIBW3133BS] = 0
• CCCN1CCC(Oc2cc(Nc3nc(Nc4cccc(F)c4C(N)=O)c4cc[nH]c4n3)c(OC)cc2Cl)CC1 [GSK1713088A] = 0
• COc1cc2ncnc(Nc3ccc(F)c(Cl)c3)c2cc1OCCCN1CCOCC1 [Gefitinib, reference compound] = 0
• CCNCC(Cc1ccccc1)NC(=O)c1cc(Br)c(-c2ccnc3[nH]ccc23)s1 (centres unmarked) [GSK1383280A] = 0
• NC[C@H](CC1CCCCC1)NC(=O)c1ccc(-c2ccnc3[nH]ccc23)s1 [GSK1581428A] = 0.07203
• Cc1ccc(NC(=O)Nc2ccccc2)cc1-c1ccc(C(=O)Nc2ccncc2)cc1 [GSK1398471A] = 0
• COc1ccc(S(=O)(=O)NC2CCN(c3cc(C)nc(Nc4cccc(C#N)c4)n3)CC2)cc1 [GSK1653539A] = 0

====

Assay target: PKN1 (Homo sapiens, UniProt Q16512)
Construct: a mixture of lysates from five cancer cell lines; endogenous in cells
Assay info: Kinobeads full dose-response competition binding: PKN1
Experimental conditions: Gene Name PKN1; eight-dose curve fit, doses in nM
Measured metric: EC50

- CCn1c(-c2nonc2N)nc2c(C#CC(C)(C)O)nc(OCCN)cc21 [GSK902056A]: 92.3 nM

====

Assay target: MAPKAPK2 (Homo sapiens, UniProt P49137)
Construct: endogenous in cells
Assay info: Kinobeads full dose-response competition binding: MAPKAPK2
Experimental conditions: Gene Name MAPKAPK2; EC50 with Correction, doses in nM; read-out: apparent Kd
Measured metric: Kd (nM)

• NCc1ccc(-c2nc(-c3ccncc3)c(-c3ccc(Cl)c(O)c3)[nH]2)cc1 = 174

====

Assay target: MOB1A (Homo sapiens, UniProt Q9H8S9)
Construct: to maximize the representation of endogenous proteins; endogenous in cells
Assay info: Kinobeads full dose-response competition binding: MOB1A
Experimental conditions: Gene Name MOB1A; EC50 with Correction, doses in nM; read-out: apparent Kd
Measured metric: Kd

• CCn1c(-c2nonc2N)nc2c(C#CC(C)(C)O)nc(OCCN)cc21 [GSK902056A] = 223 nM

====

Assay target: CIT (Homo sapiens, UniProt O14578)
Construct: endogenous in cells
Assay info: Kinobeads competition binding: CIT
Experimental conditions: target CIT
Reported CATDS values follow for various compounds
Measured metric: CATDS

* Nc1ncnc2[nH]c(-c3ccccc3)nc12 | 0
* CCN1CCN(Cc2ccc(Nc3ncc(F)c(-c4cc(F)c5nc(C)n(C(C)C)c5c4)n3)nc2)CC1 | 0.02291
* CN(C)C/C=C/C(=O)Nc1cc2c(Nc3ccc(F)c(Cl)c3)ncnc2cc1O[C@H]1CCOC1 | 0
* CCc1cc2c(cc1N1CCC(N3CCOCC3)CC1)C(C)(C)c1[nH]c3cc(C#N)ccc3c1C2=O | 0
* N#CC1(c2ccc(NC(=O)c3cccnc3NCc3ccncc3)cc2)CCCC1 | 0

====

Recorded IC50 by entry
Assay target: UniProt Q6P5Z2
Assay info: NanoBRET in-cell target engagement in HEK293T cells: PKN3;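 further: Full-length PKN3 with C-terminal NanoLuc expressed in HEK293T cells, serial inhibitor dilutions competing against Kinase Tracer K5 at 500 nM, BRET read after 2 h at 37 °C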
Assay type: cell-based
Set-up: full-length PKN3, CSNK2A1 or CSNK2A2 ORF; host or cells: HEK293T
Experimental conditions: biological replicate number 1; read-out: Rep 1 IC50 NanoBRET PKN3
Measured metric: IC50 (µM)

• COc1cccc2c(-c3ccncc3)c(-c3ccc(F)cc3)nn12 [GW468513X] = 2.11
• CCn1c(-c2nonc2N)nc2c(C#CC(C)(C)O)nc(CN3CCCC3)cc21 [GSK1000163A] = 11.1
• NCc1ccc(-c2nc(-c3ccncc3)c(-c3ccc(Cl)c(O)c3)[nH]2)cc1 = 0.589
• CNc1ncc2cc(-c3cc(NC(=O)NCCC(C)(C)C)c(F)cc3C)c(C)nc2n1 [LY3009120, reference compound] = 0.538
• Fc1ccc(-c2c(-c3ccncc3)[nH]c3cccnc23)cc1 = 8.03
• CCn1c(-c2nonc2N)nc2c(C#CC(C)(C)O)nc(OCCN)cc21 [GSK902056A] = 0.234
• CCn1c(-c2nonc2N)nc2c(C#CCN)ncc(OCCCN)c21 [GSK561866B] = 12.9
• ON=C1CCc2cc(-c3nc(C4CCNCC4)[nH]c3-c3ccncc3)ccc21 = 19.1

====

Assay target: CIT (Homo sapiens, UniProt O14578)
Construct: endogenous in cells
Assay info: Kinobeads full dose-response competition binding: CIT
Experimental conditions: Gene Name CIT; EC50 with Correction, doses in nM; read-out: apparent Kd
Measured metric: Kd (nM)

• CCn1c(-c2nonc2N)nc2c(C#CC(C)(C)O)nc(OCCN)cc21 [GSK902056A] = 279
